Assay: Sulforhodamine B (SRB) cytotoxicity assay, neonatal fibroblasts
Format: cell-based, human
Conditions: human, normal primary neonatal fibroblast cells; 72 hrs @500 µM; supplement csv
Method: Our strategy to identify novel ODC inhibitors was to first screen new analogs for ODC inhibition at 50 μM using our in vitro enzyme activity assay and purified human ODC (Table 1). […] The colorimetric sulforhodamine B (SRB) assay was used to measure cytotoxicity following treatment with ODC inhibitors. […] One hundred μL of 10 mM Tris–HCl pH 7.0 was added to each well, shaken for 10 min at room temperature and absorbance was read at 540 nm. […]
RECORDED METRIC: cytotoxicity at 72 h, 500 µM (%)
One number for each entry, in %.

Look over these answered cases.
[[record]]
compound = "Cc1ncc(COP(=O)(O)O)c(/C=N/OCC2(F)CCNC2)c1O (centres unmarked)"
recorded_metric = "cytotoxicity at 72 h, 500 µM"
result_number = 57

[[record]]
compound = "NOCC1CCCNC1 (centres unmarked)"
recorded_metric = "cytotoxicity at 72 h, 500 µM"
result_number = 3


Hi, could you look up cytotoxicity at 72 h, 500 µM for each item in my list?
1. NOC[C@H]1CCCNC1
2. NOC[C@@H]1CCCNC1
3. NOC[C@@H]1CCNC1
4. Cc1ncc(COP(=O)(O)O)c(/C=N/OCCCN)c1O
5. NOC[C@H]1CCNC1
6. NCCCON

Ans:
1: 0; 2: 0; 3: 16; 4: 12; 5: 9; 6: 37

Hi, could you look up cytotoxicity at 72 h, 500 µM for each item in my list?
1. NOCC1CNCCO1 (centres unmarked)
2. NOCC1CCNC1 (centres unmarked)
3. Cc1ncc(COP(=O)(O)O)c(/C=N/OC[C@@H]2CCNC2)c1O
4. Cc1ncc(COP(=O)(O)O)c(/C=N/OC[C@H]2CCNC2)c1O
5. NCCC[C@](N)(C(=O)O)C(F)F
6. Cl.Cl.NOCC1(F)CCNC1 (centres unmarked)

Ans:
1. 0
2. 14
3. 36
4. 40
5. 41
6. 21

From: paper PMC11912471
